This section presents molecules with their documented log10 RU values.
SUBJECT_OF_TEST: DNA dC->dU-editing enzyme APOBEC-3G (Homo sapiens) (UniProt Q9HC16)
Sequence (Q9HC16 whole entry): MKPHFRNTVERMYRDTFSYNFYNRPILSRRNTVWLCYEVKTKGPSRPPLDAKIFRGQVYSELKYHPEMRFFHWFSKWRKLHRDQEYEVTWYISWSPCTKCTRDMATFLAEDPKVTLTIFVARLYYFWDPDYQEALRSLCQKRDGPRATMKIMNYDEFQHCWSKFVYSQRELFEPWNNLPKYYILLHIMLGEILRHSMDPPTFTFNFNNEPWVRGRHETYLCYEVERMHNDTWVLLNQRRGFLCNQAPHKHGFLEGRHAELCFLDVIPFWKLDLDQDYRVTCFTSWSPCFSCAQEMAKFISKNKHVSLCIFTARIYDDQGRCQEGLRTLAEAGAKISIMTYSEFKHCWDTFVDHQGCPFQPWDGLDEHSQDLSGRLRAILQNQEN
MEASUREMENT_DESCRIPTION: Binding affinity to human recombinant APOBEC3G at 20 ug/ml
READOUT_LABEL: log10 RU (log10 of the value in pg/mm2)

| CHEM_SMILES | ENDPOINT_VALUE |
| --- | --- |
| O=C1C(c2ccc(O)c(O)c2)=c2c(c3c(n2CCc2ccc(O)cc2)=C(c2ccc(O)c(OS(=O)(=O)O)c2)C(=O)c2cc(O)c(OS(=O)(=O)O)cc2-3)-c2cc(O)c(O)cc21 | 3.00 |
| O=C1C(c2ccc(O)c(OS(=O)(=O)O)c2)=c2c(c3c(n2CCc2ccc(O)cc2)=C(c2ccc(O)c(O)c2)C(=O)c2cc(O)c(OS(=O)(=O)O)cc2-3)-c2cc(O)c(O)cc21 | 3.00 |
| O=C(O)Cn1c2c(c3c1=C(c1ccc(O)c(O)c1)C(=O)c1cc(O)c(O)cc1-3)-c1cc(O)c(O)cc1C(=O)C=2c1ccc(O)c(O)c1 | 3.34 |
| O=C(O)Cn1c2c(c3c1=C(c1ccc(O)c(O)c1)C(=O)c1cc(O)c(OS(=O)(=O)O)cc1-3)-c1cc(O)c(O)cc1C(=O)C=2c1ccc(O)c(O)c1 | 3.39 |
| O=C1C(c2ccc(O)c(O)c2)=C2C(=C(c3ccc(O)c(O)c3)C(=O)N2CCc2ccc(OS(=O)(=O)O)cc2)c2cc(O)c(O)cc21 | 2.88 |
| O=C1C(c2ccc(O)c(O)c2)=c2c(c3c(n2CCc2ccc(O)cc2)=C(c2ccc(O)c(O)c2)C(=O)c2cc(O)c(OS(=O)(=O)O)cc2-3)-c2cc(O)c(O)cc21 | 2.23 |
